Assign inhibition at 10 µM to each entry below.
test system: LPS-induced microglia activation; assay: Image-based assay of LPS-induced microglia activation (HTS and dose response); type: cell-based, rat; conditions: Rattus norvegicus, Microglia, 48 h, primary microglia HTS, LPS stimulation; increased cell size (>800 μm^2) as marker of activation; read-out: LPS % inhibition
Counter-ions that a name gives are not always drawn.
Answers without a unit are incomplete; give the number and then its unit.

Here is how some compounds turned out for inhibition at 10 µM.
# Compound, inhibition at 10 µM
measured = [
    ("C[C@]12CCC(=O)C=C1CC[C@@H]1[C@@H]2CC[C@@]2(C)[C@H]1CC[C@]2(C)O", "-2%"),
    ("CC(CN(C)C)CN1c2ccccc2CCc2ccccc21 (stereo not shown) [Trimipramine maleate, reference compound]", "92%"),
    ("CN(C)[C@@H]1C(O)=C(C(N)=O)C(=O)[C@@]2(O)C(O)=C3C(=O)c4c(O)ccc(Cl)c4[C@@H](O)[C@H]3C[C@@H]12 [Demeclocycline hydrochloride, reference compound]", "31%"),
    ("COc1ccc(-n2nc(CCC(=O)N(C)O)cc2-c2ccc(Cl)cc2)cc1 [Tepoxalin, reference compound]", "66%"),
]

State recorded inhibition at 10 µM for all listed compounds.
1. C[C@]12C=CC(=O)C=C1CC[C@@H]1[C@@H]2C(=O)C[C@@]2(C)[C@H]1CC[C@]2(O)C(=O)CO [Prednisone, reference compound]
2. CN(C)CCCN1c2ccccc2Sc2ccccc21
3. COP(=O)(OC)C(O)C(Cl)(Cl)Cl (stereo not shown) [Metrifonate]

// result
["45%", "117%", "8%"]
